System: Detroit562 (Head and Neck Carcinoma)
PROTOCOL: combination Emax (second highest fraction inhibited in the dose matrix, 72 h); higher = more inhibition; extreme values may be limits of the assay
Known combination Emax of a selection of compounds
Simply state the number, no unit and no words.

As a guide, the following entries are already answered.
-- ask Which combination Emax is listed for CN(CCO)CC[C@H](CSc1ccccc1)Nc1ccc(S(=O)(=O)NC(=O)c2ccc(N3CCC([C@@H](O)c4ccccc4-c4ccc(Cl)cc4)CC3)cc2)cc1S(=O)(=O)C(F)(F)F [AZD4320] + C[C@@H](Nc1cc(F)cc(F)c1)c1cc(C(=O)N(C)C)cc2c(=O)cc(N3CCOCC3)oc12 [AZD8186] (first compound max 1 µM, 7x7, partner max 3 µM) ?
-- reply 0.666

-- ask What measured combination Emax goes with CN(CCO)CC[C@H](CSc1ccccc1)Nc1ccc(S(=O)(=O)NC(=O)c2ccc(N3CCC([C@@H](O)c4ccccc4-c4ccc(Cl)cc4)CC3)cc2)cc1S(=O)(=O)C(F)(F)F [AZD4320] + C[C@@H]1COCCN1C2=NC(=NC(=C2)C3(CC3)[S@](=N)(=O)C)C4=C5C=CNC5=NC=C4 [AZD6738] (first compound max 1 µM, 7x7, partner max 10 µM) ?
-- reply 0.905

Lab note: next compound to report on.
-- ask Find the recorded combination Emax belonging to CC1(C)CCC(CN2CCN(c3ccc(C(=O)NS(=O)(=O)c4ccc(NCC5CCOCC5)c([N+](=O)[O-])c4)c(Oc4cnc5[nH]ccc5c4)c3)CC2)=C(c2ccc(Cl)cc2)C1 [Venetoclax] + C[C@@H](Nc1cc(F)cc(F)c1)c1cc(C(=O)N(C)C)cc2c(=O)cc(N3CCOCC3)oc12 [AZD8186] (first compound max 1 µM, 7x7, partner max 3 µM) and report it.
-- reply 0.137

---

Test system: Detroit562 (Head and Neck Carcinoma)
PROTOCOL: combination Emax (second highest fraction inhibited in the dose matrix, 72 h); higher = more inhibition; extreme values may be limits of the assay
Quick reference: combination Emax of the listed items.

Consider the following illustrative entries.
-- ask Value lookup for combination Emax; key = Cn1cnc2c(F)c(Nc3ccc(Br)cc3Cl)c(C(=O)NOCCO)cc21 [Selumetinib] + CC(C)n1c(=O)n(C)c2cnc3cc(F)c(-c4ccc(OCCCN5CCCCC5)nc4)cc3c21 [AZD1390] (first compound max 10 µM, 7x7, partner max 0.3 µM)
-- reply 0.367

-- ask Dear colleague, I am looking for the recorded combination Emax of the following compound: NC1(C(=O)N[C@@H](CCO)c2ccc(Cl)cc2)CCN(c2ncnc3[nH]ccc23)CC1 [Capivasertib] + C[C@@H]1COCCN1C2=NC(=NC(=C2)C3(CC3)[S@](=N)(=O)C)C4=C5C=CNC5=NC=C4 [AZD6738] (first compound max 10 µM, 7x7, partner max 10 µM)
-- reply 0.918

-- ask For CCN(CCO)CCCOc1ccc2c(Nc3cc(CC(=O)Nc4cccc(F)c4)[nH]n3)ncnc2c1 [AZD2811] + C[C@@H]1COCCN1C2=NC(=NC(=C2)C3(CC3)[S@](=N)(=O)C)C4=C5C=CNC5=NC=C4 [AZD6738] (first compound max 1 µM, 7x7, partner max 10 µM) , what is its reported combination Emax?
-- reply 0.913

-- ask combination Emax for Cc1c2c(nn1C)CSCc1cc(n(C)n1)CSc1cc(c3ccccc3c1)OCCCc1c(C(=O)O)n(C)c3c-2c(Cl)ccc13 [AZD5991] + C[C@@H](Nc1cc(F)cc(F)c1)c1cc(C(=O)N(C)C)cc2c(=O)cc(N3CCOCC3)oc12 [AZD8186] (first compound max 1 µM, 7x7, partner max 3 µM) ?
-- reply 0.305

***
-- ask # get_value(readout='combination Emax', item= CC1(C)CCC(CN2CCN(c3ccc(C(=O)NS(=O)(=O)c4ccc(NCC5CCOCC5)c([N+](=O)[O-])c4)c(Oc4cnc5[nH]ccc5c4)c3)CC2)=C(c2ccc(Cl)cc2)C1 [Venetoclax] + CN(C)CCCOc1ccc(-c2ccc3ncc4c(c3c2)n(C2CCOCC2)c(=O)n4C)cn1 [AZD0156] (first compound max 1 µM, 7x7, partner max 1 µM) )
-- reply 0.212

---

Test system: BFTC-909 (Kidney Carcinoma)
PROTOCOL: combination Emax (second highest fraction inhibited in the dose matrix, 72 h); higher = more inhibition; extreme values may be limits of the assay
OUTCOME MEASURE: combination Emax
Quick one: just the number, no unit, thanks!

-- ask Quick check: combination Emax on BFTC-909 (Kidney Carcinoma), item COc1nnc2ccc(N3CCC(c4ccc(OCCN5CCN(C)C(=O)[C@H]5C)cc4)CC3)nn12 [AZD5153] + C[C@@H]1COCCN1C2=NC(=NC(=C2)C3(CC3)[S@](=N)(=O)C)C4=C5C=CNC5=NC=C4 [AZD6738] (first compound max 1 µM, 7x7, partner max 10 µM) ?
-- reply 0.876

Continue with the molecule presented below.
-- ask Notebook entry, BFTC-909 (Kidney Carcinoma) assay: combination Emax of COc1nnc2ccc(N3CCC(c4ccc(OCCN5CCN(C)C(=O)[C@H]5C)cc4)CC3)nn12 [AZD5153] + C=CCn1c(=O)c2cnc(Nc3ccc(N4CCN(C)CC4)cc3)nc2n1-c1cccc(C(C)(C)O)n1 [AZD1775] (first compound max 1 µM, partner max 1 µM) = ?
-- reply 0.702

---

System: HuH-7 (Hepatocellular Carcinoma)
PROTOCOL: combination Emax (second highest fraction inhibited in the dose matrix, 72 h); higher = more inhibition; extreme values may be limits of the assay
Assign class by combination Emax: not lower than 0.2 means TRUE; lower than 0.2 means FALSE.

Reference set, count: 4
-- ask Quick check: does CCN(CCO)CCCOc1ccc2c(Nc3cc(CC(=O)Nc4cccc(F)c4)[nH]n3)ncnc2c1 [AZD2811] + C[C@@H]1COCCN1C2=NC(=NC(=C2)C3(CC3)[S@](=N)(=O)C)C4=C5C=CNC5=NC=C4 [AZD6738] (first compound max 1 µM, 7x7, partner max 10 µM) have combination Emax greater than or equal to 0.2?
-- reply TRUE

-- ask For this compound, is measured combination Emax 0.2 or higher? COc1cc2ncnc(Nc3ccc(F)c(Cl)c3)c2cc1OCCCN1CCOCC1 [Gefitinib] + CC(C)n1c(=O)n(C)c2cnc3cc(F)c(-c4ccc(OCCCN5CCCCC5)nc4)cc3c21 [AZD1390] (first compound max 10 µM, 7x7, partner max 0.3 µM)
-- reply FALSE

-- ask API: above_or_equal(metric=combination Emax, cutoff=0.2) for item C=CCn1c(=O)c2cnc(Nc3ccc(N4CCN(C)CC4)cc3)nc2n1-c1cccc(C(C)(C)O)n1 [AZD1775] + O=C(c1cc(Cc2n[nH]c(=O)c3ccccc23)ccc1F)N1CCN(C(=O)C2CC2)CC1 [Olaparib] (first compound max 1 µM, partner max 10 µM)
-- reply TRUE

-- ask Hi, just wondering whether COc1cc2c(cc1OCCCCCOc1cc3c(cc1OC)C(=O)N1C=C(C)C[C@H]1C=N3)N=C[C@@H]1CC(C)=CN1C2=O [SG3199] + O=C(c1cc(Cc2n[nH]c(=O)c3ccccc23)ccc1F)N1CCN(C(=O)C2CC2)CC1 [Olaparib] (first compound max 0.001 µM, 7x7, partner max 10 µM) shows combination Emax of 0.2 or higher.
-- reply FALSE

Further cases:
-- ask Given Cn1cnc2c(F)c(Nc3ccc(Br)cc3Cl)c(C(=O)NOCCO)cc21 [Selumetinib] + C[C@@H]1COCCN1C2=NC(=NC(=C2)C3(CC3)[S@](=N)(=O)C)C4=C5C=CNC5=NC=C4 [AZD6738] (first compound max 10 µM, 7x7, partner max 10 µM) , state whether its combination Emax is at least 0.2.
-- reply TRUE

-- ask Determine whether measured combination Emax meets or exceeds 0.2 for Cc1c2c(nn1C)CSCc1cc(n(C)n1)CSc1cc(c3ccccc3c1)OCCCc1c(C(=O)O)n(C)c3c-2c(Cl)ccc13 [AZD5991] + Cn1cnc2c(F)c(Nc3ccc(Br)cc3Cl)c(C(=O)NOCCO)cc21 [Selumetinib] (first compound max 1 µM, 7x7, partner max 3 µM)
-- reply TRUE

---

Test system: CAL-72 (Osteosarcoma)
PROTOCOL: combination Emax (second highest fraction inhibited in the dose matrix, 72 h); higher = more inhibition; extreme values may be limits of the assay
The reader will find reported combination Emax values listed item by item below.
In your answer, state the number alone without any accompanying words.

-- ask What does the data say about its combination Emax? Entry: CN(C)CCCOc1ccc(-c2ccc3ncc4c(c3c2)n(C2CCOCC2)c(=O)n4C)cn1 [AZD0156] + C[C@@H]1COCCN1C2=NC(=NC(=C2)C3(CC3)[S@](=N)(=O)C)C4=C5C=CNC5=NC=C4 [AZD6738] (first compound max 1 µM, 7x7, partner max 10 µM)
-- reply 0.889

Continue with the next molecule.
-- ask # get_value(readout='combination Emax', item= COc1cccc(OCCCN)c1-c1cc(Nc2cnc(C#N)cn2)n[nH]1 [Prexasertib] + C[C@@H]1COCCN1C2=NC(=NC(=C2)C3(CC3)[S@](=N)(=O)C)C4=C5C=CNC5=NC=C4 [AZD6738] (first compound max 1 µM, 7x7, partner max 10 µM) )
-- reply 0.869
